System: Epidermal growth factor receptor (Homo sapiens), P00533 [T790M]
Sequence (P00533 whole entry T790M): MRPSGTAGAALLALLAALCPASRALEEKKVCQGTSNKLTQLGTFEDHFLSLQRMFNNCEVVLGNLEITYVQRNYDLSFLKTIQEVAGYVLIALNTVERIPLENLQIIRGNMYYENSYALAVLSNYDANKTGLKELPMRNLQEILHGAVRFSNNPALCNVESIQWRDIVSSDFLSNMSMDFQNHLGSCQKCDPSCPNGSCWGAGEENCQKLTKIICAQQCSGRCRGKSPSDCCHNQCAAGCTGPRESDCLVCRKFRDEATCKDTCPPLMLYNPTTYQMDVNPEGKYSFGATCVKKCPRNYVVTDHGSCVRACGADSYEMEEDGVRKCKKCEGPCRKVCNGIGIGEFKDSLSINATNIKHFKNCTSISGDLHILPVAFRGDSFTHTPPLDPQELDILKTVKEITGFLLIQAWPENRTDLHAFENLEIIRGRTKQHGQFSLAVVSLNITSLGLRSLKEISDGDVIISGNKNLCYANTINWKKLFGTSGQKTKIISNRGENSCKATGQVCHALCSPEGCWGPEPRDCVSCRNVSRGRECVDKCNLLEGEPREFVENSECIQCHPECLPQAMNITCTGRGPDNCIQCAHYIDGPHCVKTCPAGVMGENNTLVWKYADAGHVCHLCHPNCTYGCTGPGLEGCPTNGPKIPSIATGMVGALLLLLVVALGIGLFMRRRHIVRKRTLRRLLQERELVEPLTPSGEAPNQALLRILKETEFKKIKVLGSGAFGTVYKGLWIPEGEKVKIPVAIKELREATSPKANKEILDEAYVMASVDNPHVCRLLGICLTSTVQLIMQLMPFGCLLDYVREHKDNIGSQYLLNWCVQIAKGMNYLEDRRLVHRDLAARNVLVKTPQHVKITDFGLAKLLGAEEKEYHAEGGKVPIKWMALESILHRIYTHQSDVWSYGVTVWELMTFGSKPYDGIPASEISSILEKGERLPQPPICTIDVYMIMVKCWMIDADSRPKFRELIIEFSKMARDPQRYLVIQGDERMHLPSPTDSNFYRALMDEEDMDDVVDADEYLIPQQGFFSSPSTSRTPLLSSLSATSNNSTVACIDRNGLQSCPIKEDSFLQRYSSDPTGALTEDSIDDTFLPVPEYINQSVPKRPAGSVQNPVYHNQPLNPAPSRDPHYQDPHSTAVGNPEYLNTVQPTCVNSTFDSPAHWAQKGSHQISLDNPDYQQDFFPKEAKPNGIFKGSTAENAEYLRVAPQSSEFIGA
assay context: at 1 µM
experimental endpoint: inhibition (%)
Give your result in % as a bare value.

Known results for compounds:
- compound: "Cc1ccc(C(=O)NC2CCCCC2)cc1-c1ccc(C(=O)NCC2CC2)cc1"
  unit of measurement: "%"
  inhibition: -2.05
- compound: "CCn1c(-c2nonc2N)nc2cncc(C(=O)N3CC[C@H](N)C3)c21"
  unit of measurement: "%"
  inhibition: 3.15
- compound: "CC1=C(C(=O)Nc2ccc3[nH]ncc3c2)C(c2ccc3ccccc3c2)CC(=O)N1 (centres undefined)"
  unit of measurement: "%"
  inhibition: 3.65
- compound: "CS(=O)(=O)CCNCc1ccc(-c2ccc3ncnc(Nc4ccc(OCc5cccc(F)c5)c(C(F)(F)F)c4)c3c2)o1"
  unit of measurement: "%"
  inhibition: 3.43
- compound: "CCn1c(-c2nonc2N)nc2c(C#CC(C)(C)O)nc(CN3CCCC3)cc21"
  unit of measurement: "%"
  inhibition: -1.46

Q. Please give the measured inhibition for this compound: Nc1ncnc2occ(-c3ccc(NC(=O)Nc4cccc(C(F)(F)F)c4)cc3)c12
A. 4.59

Q. Please give the measured inhibition for this compound: NS(=O)(=O)c1cccc(-c2ccc3c(NC(=O)C4CC4)n[nH]c3c2)c1
A. -1.45

Q. Please give the measured inhibition for this compound: COC(=O)Nc1nc2cc(Oc3ccc(NC(=O)Nc4cccc(C(=O)O)c4)cc3)ccc2[nH]1
A. 0.98

Q. Please give the measured inhibition for this compound: Cc1ccc(NC(=O)c2ccnc(N3CCCC3)c2)cc1-c1ccc(C(=O)NCC2CC2)cc1
A. 0.9

---

measured target: Calcium/calmodulin-dependent protein kinase type II subunit alpha (Homo sapiens) (UniProt Q9UQM7);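 note: reported value is a mean percent inhibition of CAMK2A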
Sequence (Q9UQM7 whole entry): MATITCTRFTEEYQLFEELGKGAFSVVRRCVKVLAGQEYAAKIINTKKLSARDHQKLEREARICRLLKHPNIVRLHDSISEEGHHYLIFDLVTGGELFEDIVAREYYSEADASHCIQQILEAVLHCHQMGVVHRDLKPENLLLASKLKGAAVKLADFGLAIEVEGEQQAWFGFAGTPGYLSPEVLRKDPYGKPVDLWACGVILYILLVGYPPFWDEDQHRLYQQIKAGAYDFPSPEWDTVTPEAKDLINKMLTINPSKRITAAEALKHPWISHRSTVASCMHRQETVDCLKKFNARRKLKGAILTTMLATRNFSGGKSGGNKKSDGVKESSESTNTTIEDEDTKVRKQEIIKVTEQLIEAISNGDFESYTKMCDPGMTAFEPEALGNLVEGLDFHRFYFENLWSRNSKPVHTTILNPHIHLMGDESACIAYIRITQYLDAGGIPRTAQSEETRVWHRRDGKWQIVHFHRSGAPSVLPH
assay context: at 1 µM
experimental endpoint: inhibition (%)
Give your result in % as a bare value.

Known results for compounds:
- structure: "CN1CCC(C(=O)Nc2n[nH]c3nnc(-c4ccccc4)cc23)CC1"
  unit of measurement: "%"
  inhibition: 3.81
- structure: "NS(=O)(=O)c1ccc(N/N=C2\\C(=O)Nc3ccc(C(=O)NCCc4c[nH]cn4)cc32)cc1"
  unit of measurement: "%"
  inhibition: 10.6
- structure: "CCN1CCC(CC(=O)Nc2n[nH]c3nc(-c4cccs4)c(Br)cc23)CC1"
  unit of measurement: "%"
  inhibition: -1.26
- structure: "COc1ccc(COc2ccc(Cc3cnc(N)nc3N)cc2OC)cc1"
  unit of measurement: "%"
  inhibition: 5.8
- structure: "COc1ccc(-c2ccncc2)cc1C(N)=O"
  unit of measurement: "%"
  inhibition: 3.32

Q. Please give the measured inhibition for this compound: Fc1cccc(COc2ccc(Nc3ncnc4cc(-c5ccc[nH]5)sc34)cc2Cl)c1
A. 0.84

Q. Please give the measured inhibition for this compound: CS(=O)(=O)Nc1ccc(N/C=C2\C(=O)Nc3ccccc32)cc1
A. -2.22

Q. Please give the measured inhibition for this compound: Nc1nc(-c2ccc3c(c2)C(=Cc2cc(Br)c(O)c(Br)c2)C(=O)N3)cs1
A. -3.05

Q. Please give the measured inhibition for this compound: CCCN1CCC=C(c2ccc(Nc3nc(Nc4ccccc4C(N)=O)c4cc[nH]c4n3)c(C)c2)C1
A. 8.19

Q. Please give the measured inhibition for this compound: CCCN1CCC(Oc2cc(Nc3nc(Nc4cccc(F)c4C(N)=O)c4cc[nH]c4n3)c(OC)cc2Cl)CC1
A. 4.06

---

measured target: Proto-oncogene tyrosine-protein kinase Src (Homo sapiens) (UniProt P12931);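 note: values are averaged inhibition of Src, tested against the GSK PKIS kinase inhibitor set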
Sequence (P12931 2-536 limits assumed): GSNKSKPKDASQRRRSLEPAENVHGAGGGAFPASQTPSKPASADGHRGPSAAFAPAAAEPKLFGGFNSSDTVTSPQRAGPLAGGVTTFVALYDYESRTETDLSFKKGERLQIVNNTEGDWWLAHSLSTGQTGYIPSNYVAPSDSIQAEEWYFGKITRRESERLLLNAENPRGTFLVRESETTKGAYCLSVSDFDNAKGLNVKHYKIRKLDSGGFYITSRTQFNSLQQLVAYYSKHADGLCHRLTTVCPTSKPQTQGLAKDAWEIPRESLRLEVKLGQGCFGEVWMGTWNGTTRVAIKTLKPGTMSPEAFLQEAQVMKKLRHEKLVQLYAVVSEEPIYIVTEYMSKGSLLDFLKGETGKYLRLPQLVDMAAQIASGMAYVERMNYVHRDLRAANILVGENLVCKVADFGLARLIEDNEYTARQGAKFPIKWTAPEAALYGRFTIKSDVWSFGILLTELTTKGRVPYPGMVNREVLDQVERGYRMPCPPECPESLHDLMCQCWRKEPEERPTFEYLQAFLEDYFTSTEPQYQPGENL
assay context: at 0.1 µM
experimental endpoint: inhibition (%)
Give your result in % as a bare value.

Known results for compounds:
- structure: "CC(=O)Nc1cccc(C#Cc2cncnc2Nc2ccc(OCc3cccc(F)c3)c(Cl)c2)n1"
  measured target: "Proto-oncogene tyrosine-protein kinase Src (Homo sapiens) (UniProt P12931)"
  inhibition [%]: 2.96
- structure: "O=C1NC(=O)C(c2ccccc2Cl)=C1Nc1cccc(O)c1"
  measured target: "Proto-oncogene tyrosine-protein kinase Src (Homo sapiens) (UniProt P12931)"
  inhibition [%]: 3.41
- structure: "CCCN1CCC=C(c2ccc(Nc3nc(Nc4ccccc4C(N)=O)c4cc[nH]c4n3)c(C)c2)C1"
  measured target: "Proto-oncogene tyrosine-protein kinase Src (Homo sapiens) (UniProt P12931)"
  inhibition [%]: 8.87
- structure: "Cc1ccc(C(=O)NC2CCCCC2)cc1-c1ccc(C(=O)NCC2CC2)cc1"
  measured target: "Proto-oncogene tyrosine-protein kinase Src (Homo sapiens) (UniProt P12931)"
  inhibition [%]: 0.23

Then this compound:
Q. Please give the measured inhibition for this compound: CCn1c(-c2nonc2N)nc2cncc(C(=O)N3CCNCC3)c21
A. 14.1

---

Form field: inhibition (one value per entry).
measured target: Cytoplasmic tyrosine-protein kinase BMX (Homo sapiens)
Sequence (whole entry): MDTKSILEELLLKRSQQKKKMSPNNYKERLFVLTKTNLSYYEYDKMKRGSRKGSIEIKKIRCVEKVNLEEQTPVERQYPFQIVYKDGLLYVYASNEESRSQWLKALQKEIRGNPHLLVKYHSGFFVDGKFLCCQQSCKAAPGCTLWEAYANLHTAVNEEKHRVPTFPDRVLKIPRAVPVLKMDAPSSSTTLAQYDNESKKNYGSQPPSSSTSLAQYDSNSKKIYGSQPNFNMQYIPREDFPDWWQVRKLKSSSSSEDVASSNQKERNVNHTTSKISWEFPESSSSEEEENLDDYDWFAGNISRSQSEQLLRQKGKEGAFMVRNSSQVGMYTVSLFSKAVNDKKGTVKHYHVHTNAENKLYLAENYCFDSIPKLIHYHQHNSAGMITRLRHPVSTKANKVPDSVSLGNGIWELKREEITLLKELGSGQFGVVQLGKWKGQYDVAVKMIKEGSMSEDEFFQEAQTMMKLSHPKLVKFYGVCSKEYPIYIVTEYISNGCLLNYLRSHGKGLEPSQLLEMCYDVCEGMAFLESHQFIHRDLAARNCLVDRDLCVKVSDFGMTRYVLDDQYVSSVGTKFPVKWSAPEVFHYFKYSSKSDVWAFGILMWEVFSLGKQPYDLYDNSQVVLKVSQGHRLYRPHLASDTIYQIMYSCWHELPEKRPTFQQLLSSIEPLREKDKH
assay context: at 0.1 µM
Description: GSK_PKIS: BMX mean inhibition at 0.1 uM [Nanosyn]
Give your result in % as a bare value.

- compound: "CC1=C(C(=O)Nc2ccc3[nH]ncc3c2)C(c2ccc(Cl)c(Cl)c2)CC(=O)N1 (stereo not given)"
  experimental endpoint: "inhibition"
  unit of measurement: "%"
  readout value: -1.91
- compound: "CS(=O)(=O)CCN(CC#N)Cc1ccc(-c2ccc3ncnc(Nc4ccc(OCc5cccc(F)c5)c(Cl)c4)c3c2)o1"
  experimental endpoint: "inhibition"
  unit of measurement: "%"
  readout value: 1.65
- compound: "O=C1NC(=O)C(N2CCc3ccccc32)=C1c1ccc(Cl)cc1"
  experimental endpoint: "inhibition"
  unit of measurement: "%"
  readout value: -0.48
- compound: "NS(=O)(=O)c1cccc(-c2ccc3c(NC(=O)C4CC4)n[nH]c3c2)c1"
  experimental endpoint: "inhibition"
  unit of measurement: "%"
  readout value: -2.14
- compound: "O=C1NC(=O)C(c2cccc(Cl)c2)=C1Nc1ccc(O)c(Cl)c1"
  experimental endpoint: "inhibition"
  unit of measurement: "%"
  readout value: 4.05
- compound: "COc1cc2ncn(-c3cc(O[C@H](C)c4ccccc4Cl)c(C(N)=O)s3)c2cc1OC"
  experimental endpoint: "inhibition"
  unit of measurement: "%"
  readout value: 2.09

Q. Please give the measured inhibition for this compound: COc1ccccc1Nc1ncc(-c2ccccc2)o1
A. 4.01

Q. Please give the measured inhibition for this compound: CS(=O)(=O)CCNCc1nc(-c2ccc3ncnc(Nc4ccc(F)c(Cl)c4)c3c2)cs1
A. 0.99

Q. Please give the measured inhibition for this compound: Cc1ccc(NC(=O)c2ccnc(N3CCCC3)c2)cc1-c1ccc(C(=O)NCC2CC2)cc1
A. 2.83

Q. Please give the measured inhibition for this compound: CC(C)=Cc1cccc2c1/C(=N/Nc1ccc(S(N)(=O)=O)cc1)C(=O)N2
A. -0.19

---

Form field: inhibition (one value per entry).
measured target: SRSF protein kinase 1 (Homo sapiens);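 note: values are mean percent inhibition of SRPK1 kinase, measured in the GSK PKIS screening panel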
assay context: at 0.1 µM
Give your result in % as a bare value.

Known results for molecules:
- structure: "COc1cc(C)c(NC(=O)CN(C)C)cc1Nc1nc(Nc2cccc(F)c2C(N)=O)c2cc[nH]c2n1"
  inhibition, %: -2.61
- structure: "NC(=O)c1ccc(-c2nc(-c3ccccn3)c(-c3ccc4c(c3)OCO4)[nH]2)cc1"
  inhibition, %: -2.38
- structure: "Fc1cccc(COc2ccc(Nc3ncnc4cc(-c5ccc[nH]5)sc34)cc2Cl)c1"
  inhibition, %: -1.71
- structure: "NS(=O)(=O)c1cccc(-c2ccc3c(NC(=O)C4CC4)n[nH]c3c2)c1"
  inhibition, %: 1.47

Q. Please give the measured inhibition for this molecule: COc1cc2ncn(-c3cc(O[C@H](C)c4ccccc4Cl)c(C(N)=O)s3)c2cc1OC
A. 0.35
